B1: HDV Ribozyme (parent)
chain: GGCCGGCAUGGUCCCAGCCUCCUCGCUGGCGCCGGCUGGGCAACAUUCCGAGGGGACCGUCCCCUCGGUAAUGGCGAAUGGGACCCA

variants of: B1; assay: self-cleavage, relative activity (ratio to wild type); higher = more cleavage; co-transcriptional
MEASURED ENDPOINT: self-cleavage

INSERT INTO assay_data (mutation_label, test_value) VALUES
  ('A8U U9G', 0.997),
  ('A43C U79G', 0.227),
  ('G73A G76A', 0.665),
  ('C41G G81C', 0.138),
  ('G10U C85U', 0.946),
  ('C22U U27A', 0.227),
  ('G11A U23A', 0.313),
  ('G53A G73A', 0.44),
  ('G10A G67U', 0.767),
  ('G40A G82C', 0.0665),
  ('A56U U60C', 1.13),
  ('C3A C32A', 0.0545),
  ('U47A C49A', 0.886),
  ('G10C G81A', 0.131),
  ('G67A A77U', 0.339),
  ('G52C A70U', 0.782),
  ('C7A C44U', 0.0723),
  ('C24G G39A', 0.0845),
  ('C49G U60G', 0.762),
  ('G1A U37G', 0.158),
  ('C57A C85U', 1.05),
  ('G54C', 0.98);
